- Tested On: rat α2B (RNG gene) receptor (Rattus norvegicus)
- Construct: expressed in transfected cells; host or cells: NIH-3T3 cells, calcium phosphate cotransfection
- Sequence (P19328 whole entry): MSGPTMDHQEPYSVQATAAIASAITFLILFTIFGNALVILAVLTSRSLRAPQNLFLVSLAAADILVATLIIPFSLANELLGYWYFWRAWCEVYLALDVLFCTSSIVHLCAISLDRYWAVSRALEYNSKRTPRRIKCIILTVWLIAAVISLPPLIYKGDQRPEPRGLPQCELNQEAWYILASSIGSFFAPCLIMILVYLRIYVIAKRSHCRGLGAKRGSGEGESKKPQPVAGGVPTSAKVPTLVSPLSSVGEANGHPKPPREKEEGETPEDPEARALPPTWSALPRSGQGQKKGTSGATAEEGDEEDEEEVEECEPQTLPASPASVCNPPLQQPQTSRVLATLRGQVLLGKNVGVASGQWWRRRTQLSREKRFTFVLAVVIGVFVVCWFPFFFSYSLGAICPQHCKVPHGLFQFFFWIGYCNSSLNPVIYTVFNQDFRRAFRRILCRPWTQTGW
- Assay Overview: RSAT (Receptor Selection and Amplification Technology) assay, alpha 2B
- Assay type: cell-based
- Test Conditions: ratio of maximal effect to that of standard full agonist oxymetazoline
Items are presented alongside their recorded Intrinsic Activity Relative to Oxymetazoline, Alpha 2B.
Property Measured: Intrinsic Activity Relative to Oxymetazoline, Alpha 2B

> print(dat)
                                    molecule  quantitative.result
 1  c1ccc2c(c1)CCCC(Cc1c[nH]cn1)C2 (centres unmarked) [Example B-11a]                  0.9
 2          O=C1/C(=C/c2c[nH]cn2)CCc2nccnc21                  0.8
 3                  Cc1csc(Cc2c[nH]cn2)c1.Cl                  0.7
 4  Cl.O=C1C2=C(CCCC2)CCC1Cc1c[nH]cn1 (centres unmarked)                 0.75
 5  CCC1=CCC(Cc2c[nH]cn2)CC1 (centres unmarked)                 0.56
 6  CC1=CCCCC1Cc1c[nH]cn1 (centres unmarked)                  0.6
 7  C1=CC(Cc2c[nH]cn2)CCC1 (centres unmarked)                  0.6
 8  Cc1ccccc1C1C2CCC(C2)C1/N=C1/NCCO1 (centres unmarked)                 0.75
 9  CCC1=C(C)CCC(Cc2c[nH]cn2)C1 (centres unmarked)                  0.6
10  C1=C2CCCCC2CCC1Cc1c[nH]cn1 (centres unmarked)                  0.5
11  C1=C(C2CC2)CCCC1Cc1c[nH]cn1 (centres unmarked)                  0.7
